# Test system: Cavia porcellus
# Assay Method Text: Bronchodilator activity in Reed-Willet guinea pig assessed as inhibition of histamine-induced bronchoconstriction at 0.28 mM administered through nebulizer for 1 min relative to PGE2
# Format: functional

Chemical Structure	Target Desc	fold change (FC)
CCCCC[C@H](O)/C=C/[C@H]1[C@H](O)CC(=O)[C@@H]1C/C=C\CCCC(=O)NC(=O)NCC	Cavia porcellus	28
CCCCC[C@H](O)/C=C/[C@H]1[C@H](O)CC(=O)[C@@H]1C/C=C\CCCC(=O)NS(C)(=O)=O	Cavia porcellus	47
CCCCC(C)(C)[C@H](O)/C=C/[C@H]1[C@H](O)CC(=O)[C@@H]1C/C=C\CCCC(=O)NS(C)(=O)=O	Cavia porcellus	28
CCCCC[C@H](O)/C=C/[C@H]1[C@H](O)CC(=O)[C@@H]1C/C=C\CCCC(=O)NC(C)=O	Cavia porcellus	63
CCCCC[C@H](O)/C=C/[C@H]1[C@H](O)CC(=O)[C@@H]1C/C=C\CCNC(=O)NC(C)=O	Cavia porcellus	25
CCCCC[C@H](O)/C=C/[C@H]1[C@H](O)CC(=O)[C@@H]1C/C=C\CCCC(=O)NC(=O)c1ccccc1	Cavia porcellus	87
CCCCC(C)(C)[C@H](O)/C=C/[C@H]1[C@H](O)CC(=O)[C@@H]1C/C=C\CCCC(=O)NC(C)=O	Cavia porcellus	24
CCCCC(C)(C)[C@H](O)/C=C/[C@H]1[C@H](O)CC(=O)[C@@H]1C/C=C\CCCc1nnn[nH]1	Cavia porcellus	76
